TARGET OR TEST SYSTEM: Oxysterols receptor LXR-beta (Homo sapiens)
RUN DESCRIPTION: LXR agonists, Gal4 luciferase reporter, confirmation, counter-screen for hgDAF-12 agonist project, cell-based, luminescence, HEK293, H. glycines campaign (AID 743051)
CONDITION DETAILS: 24 h, at 6.8 µM, active compounds read high
The other results are listed elsewhere or left out. Activity calls are given as the source filed them.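 Rule for the calls: active = mean activation of the triplicate above a set limit carried over from the primary screen, none filed active; inactive = the rest.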
REPORTED PROPERTY: activation

COMPOUND	VALUE OBSERVED
COc1ccc2nc(-c3ccccn3)ccc2c1	1.05% (inactive)
CC(=O)c1cc(C#N)c(SCC(=O)C(C)(C)C)nc1C	0.48% (inactive)
Cc1ccccc1Nc1nc(N)nc(CSc2ccccc2)n1	0.84% (inactive)
Clc1ccc(Nc2ccc3ccccc3n2)cc1	1.31% (inactive)
Cn1c(=NC(=O)C2CC2)sc2cc(F)cc(F)c21	0.25% (inactive)
CC(C)(C)c1csc(NC2=NS(=O)(=O)c3ccccc32)n1	0.75% (inactive)
C/C(=N\NC(=O)OC(C)(C)C)c1ccc[nH]1	0.45% (inactive)
c1ccc(Cc2c(-c3ccco3)nc3c4ccccc4ccn23)cc1	0.76% (inactive)
CCOc1ccc(-c2nnc(-c3ccco3)o2)cc1	0.7% (inactive)
O=C(NC(=O)c1ccccc1)Nc1ccccc1O	1.13% (inactive)
Cc1cccc(-n2c(O)c(C=Nc3ccccc3N)c(=O)[nH]c2=O)c1	0.33% (inactive)
CC(=O)c1ccccc1NC(=O)COC(=O)C1COc2ccccc2O1 (stereo not given)	0.04% (inactive)
CC(=O)c1sc(N/N=C/c2ccc(C(C)C)cc2)nc1C	0.5% (inactive)
CCOC(=O)c1cn[nH]c1NC(=S)Nc1ccccc1	1.01% (inactive)
Cc1cccc(NC(=O)Nc2ccc3c(c2)OCO3)n1	0.79% (inactive)
Cn1c(NC(=O)c2ccccc2)nc2ccccc21	0.86% (inactive)
COc1ccc(-c2csc(-c3cccs3)n2)cc1OC	0.79% (inactive)
O=C(Nc1ccc(C2CC2(Cl)Cl)cc1)c1cccc([N+](=O)[O-])c1 (stereo not given)	0.56% (inactive)
Brc1ccccc1C1N=C(c2ccccc2)NO1 (stereo not given)	0.87% (inactive)
Cc1ccn(-c2cccc(-n3ccc(C)n3)n2)n1	0.61% (inactive)
NC(=O)Cc1ccc2sc(-c3ccccc3)nc2c1	0.66% (inactive)
Cc1ccc(C(=O)Nc2ccc(C)c(S(=O)(=O)N(C)C)c2)s1	0.45% (inactive)
Cc1ccsc1C(=O)N/N=C/c1ccc([N+](=O)[O-])cc1	0.59% (inactive)
CN(C)c1ccnc2sc(C(=O)c3ccccc3)c(N)c12	0.47% (inactive)
O=C(NCCc1c[nH]c2ccccc12)c1cc2ccccc2oc1=O	0.56% (inactive)

###

RUN DESCRIPTION: inhibitors of NFAT-driven beta-lactamase reporter, confirmation, counter-screen for GALR2 antagonist project, CHO NFAT-bla cells, FRET readout (AID 867);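 note: 0% = 500 nM thapsigargin stimulated wells and 100% = unstimulated BSA only wells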
CONDITION DETAILS: thapsigargin-stimulated, at 4.2 µM, active compounds read high
The other results are listed elsewhere or left out.

COMPOUND	inhibition, %
O=C(Nc1ccccc1)c1nnsc1S(=O)(=O)c1ccc(Cl)cc1	66.7
Cn1c(-c2ccco2)nc2cc3ccccc3cc21	15.4
Fc1ccc2[nH]c3c(N4CCN(Cc5ccc6c(c5)OCO6)CC4)ncnc3c2c1	24.3
c1ccc2[nH]c(-c3nc4ccccc4[nH]3)nc2c1	8.39
O=C(NC(Nc1nc2ccc([N+](=O)[O-])cc2s1)(C(F)(F)F)C(F)(F)F)c1ccccc1	69.4
COc1ccccc1N1N=C(c2cccs2)CC1c1ccccc1 (stereo not given)	39.8
O=C(CNC(=O)OCc1ccccc1)Oc1cc2oc(=O)cc(-c3ccccc3)c2cc1Cl	37
N#Cc1cccc(NC(=O)COC(=O)c2ccccc2C(=O)c2ccc(Cl)c([N+](=O)[O-])c2)c1	37.4
CN(C)S(=O)(=O)c1cccc(NC(=O)COC(=O)C2(c3ccccc3F)CCCC2)c1	15.1
Cc1cc(-c2n[nH]c(=S)n2/N=C/C(Br)=C/c2ccccc2)n[nH]1	20.9
